Give measured max % larvae for each item. Keep answers brief.
tested on: Danio rerio embryo/larva; assay: max % larvae with blood pooling across tested concentrations; higher = more toxic; extreme values may be limits of the assay; conditions: exposure: 6-8 hpf to 5 dpf, scored at 6 dpf
Give bare numbers, in %.

Example entries and their recorded answers appear below.
FC(F)(Br)C(F)(F)C(F)(F)C(F)(F)C(F)(F)C(F)(F)Br [1,6-Dibromododecafluorohexane] (max tested concentration (log10 uM): 2) ... 0
CCN(CCO)S(=O)(=O)C(F)(F)C(F)(F)C(F)(F)C(F)(F)C(F)(F)C(F)(F)C(F)(F)C(F)(F)F [N-Ethyl-N-(2-hydroxyethyl)perfluorooctane sulfonamide] (max tested concentration (log10 uM): 2) ... 0
O=C(O)C(F)(F)OC(F)(F)C(F)(F)OC(F)(F)C(=O)O [Perfluoro-3,6-dioxaoctane-1,8-dioic acid] (max tested concentration (log10 uM): 2) ... 0
O=C(O)C(F)(F)C(F)(F)C(F)(F)C(F)(F)C(F)(F)C(F)(F)C(F)(F)F [Potassium perfluorooctanoate] (max tested concentration (log10 uM): 2) ... 9.09
OCCCCC(F)(F)C(F)(F)C(F)(F)C(F)(F)F [4:4 Fluorotelomer alcohol] (max tested concentration (log10 uM): 2) ... 0

Provide max % larvae for all items below, preserving their order.
1. O=S(=O)(O)C(F)(F)C(F)(F)C(F)(F)C(F)(F)C(F)(F)C(F)(F)C(F)(F)C(F)(F)F [Perfluorooctanesulfonic acid] (max tested concentration (log10 uM): 1)
2. NCC(F)(F)C(F)(F)C(F)(F)C(F)(F)C(F)(F)C(F)(F)C(F)(F)C(F)(F)F [1H,1H-Perfluorononylamine] (max tested concentration (log10 uM): 1.60206)
3. NCC(F)(F)C(F)(F)C(F)(F)C(F)(F)C(F)(F)C(F)(F)C(F)(F)F [1H,1H-Perfluorooctylamine] (max tested concentration (log10 uM): 2)
4. O=P(O)(O)CCC(F)(F)C(F)(F)C(F)(F)C(F)(F)C(F)(F)C(F)(F)C(F)(F)C(F)(F)F [((Perfluorooctyl)ethyl)phosphonic acid] (max tested concentration (log10 uM): 2)
5. O=S(=O)(O)C(F)(F)C(F)(F)C(F)(F)C(F)(F)C(F)(F)C(F)(F)C(F)(F)F [Perfluoroheptanesulfonic acid] (max tested concentration (log10 uM): 1.90309)

result:
[0, 50, 0, 0, 50]
